Attribution: paper PMC4324447

system: WT hMC4R (Homo sapiens)
Sequence (P32245 whole entry): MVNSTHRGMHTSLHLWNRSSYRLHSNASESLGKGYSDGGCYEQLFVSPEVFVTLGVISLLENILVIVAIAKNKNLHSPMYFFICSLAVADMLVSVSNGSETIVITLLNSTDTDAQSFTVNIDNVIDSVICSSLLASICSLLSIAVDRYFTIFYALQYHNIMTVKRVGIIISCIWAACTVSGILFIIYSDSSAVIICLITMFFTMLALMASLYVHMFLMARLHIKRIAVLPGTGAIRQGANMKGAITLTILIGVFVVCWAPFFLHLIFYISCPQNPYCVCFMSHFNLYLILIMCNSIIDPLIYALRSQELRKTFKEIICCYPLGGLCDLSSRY
measurementType: EC50

Query: Identify the measured EC50 of `CC(=O)N[C@@H](Cc1cnc[nH]1)C(=O)N[C@H](Cc1ccccc1)C(=O)N[C@@H](CCCN=C(N)N)C(=O)N1Cc2ccccc2C[C@H]1C(N)=O` for WT hMC4R (Homo sapiens).
Response: > 10 µM

====

system: L106P hMC4R (Homo sapiens, UniProt P32245, L106P)
Sequence (P32245 whole entry L106P): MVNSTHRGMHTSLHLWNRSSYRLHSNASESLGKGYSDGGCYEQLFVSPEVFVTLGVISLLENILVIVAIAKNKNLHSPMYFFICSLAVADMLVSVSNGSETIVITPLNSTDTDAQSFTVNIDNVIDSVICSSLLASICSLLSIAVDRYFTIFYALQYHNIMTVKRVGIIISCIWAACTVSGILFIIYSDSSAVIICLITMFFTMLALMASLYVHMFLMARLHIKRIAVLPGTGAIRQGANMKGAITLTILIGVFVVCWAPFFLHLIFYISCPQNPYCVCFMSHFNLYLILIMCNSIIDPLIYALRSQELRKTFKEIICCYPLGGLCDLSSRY
experimentalProtocol: cAMP based CRE/β-galactosidase reporter gene functional bioassay, L106P hMC4R
measurementType: EC50

Query: What measured EC50 goes with `CC(=O)N[C@@H](Cc1cnc[nH]1)C(=O)N[C@H](Cc1ccccc1)C(=O)N[C@@H](CCCN=C(N)N)C(=O)N1Cc2ccccc2C[C@H]1C(N)=O` ?
Response: > 100 µM
